tgt: Fatty acid synthase (Homo sapiens, UniProt P49327)
Sequence (P49327 whole entry): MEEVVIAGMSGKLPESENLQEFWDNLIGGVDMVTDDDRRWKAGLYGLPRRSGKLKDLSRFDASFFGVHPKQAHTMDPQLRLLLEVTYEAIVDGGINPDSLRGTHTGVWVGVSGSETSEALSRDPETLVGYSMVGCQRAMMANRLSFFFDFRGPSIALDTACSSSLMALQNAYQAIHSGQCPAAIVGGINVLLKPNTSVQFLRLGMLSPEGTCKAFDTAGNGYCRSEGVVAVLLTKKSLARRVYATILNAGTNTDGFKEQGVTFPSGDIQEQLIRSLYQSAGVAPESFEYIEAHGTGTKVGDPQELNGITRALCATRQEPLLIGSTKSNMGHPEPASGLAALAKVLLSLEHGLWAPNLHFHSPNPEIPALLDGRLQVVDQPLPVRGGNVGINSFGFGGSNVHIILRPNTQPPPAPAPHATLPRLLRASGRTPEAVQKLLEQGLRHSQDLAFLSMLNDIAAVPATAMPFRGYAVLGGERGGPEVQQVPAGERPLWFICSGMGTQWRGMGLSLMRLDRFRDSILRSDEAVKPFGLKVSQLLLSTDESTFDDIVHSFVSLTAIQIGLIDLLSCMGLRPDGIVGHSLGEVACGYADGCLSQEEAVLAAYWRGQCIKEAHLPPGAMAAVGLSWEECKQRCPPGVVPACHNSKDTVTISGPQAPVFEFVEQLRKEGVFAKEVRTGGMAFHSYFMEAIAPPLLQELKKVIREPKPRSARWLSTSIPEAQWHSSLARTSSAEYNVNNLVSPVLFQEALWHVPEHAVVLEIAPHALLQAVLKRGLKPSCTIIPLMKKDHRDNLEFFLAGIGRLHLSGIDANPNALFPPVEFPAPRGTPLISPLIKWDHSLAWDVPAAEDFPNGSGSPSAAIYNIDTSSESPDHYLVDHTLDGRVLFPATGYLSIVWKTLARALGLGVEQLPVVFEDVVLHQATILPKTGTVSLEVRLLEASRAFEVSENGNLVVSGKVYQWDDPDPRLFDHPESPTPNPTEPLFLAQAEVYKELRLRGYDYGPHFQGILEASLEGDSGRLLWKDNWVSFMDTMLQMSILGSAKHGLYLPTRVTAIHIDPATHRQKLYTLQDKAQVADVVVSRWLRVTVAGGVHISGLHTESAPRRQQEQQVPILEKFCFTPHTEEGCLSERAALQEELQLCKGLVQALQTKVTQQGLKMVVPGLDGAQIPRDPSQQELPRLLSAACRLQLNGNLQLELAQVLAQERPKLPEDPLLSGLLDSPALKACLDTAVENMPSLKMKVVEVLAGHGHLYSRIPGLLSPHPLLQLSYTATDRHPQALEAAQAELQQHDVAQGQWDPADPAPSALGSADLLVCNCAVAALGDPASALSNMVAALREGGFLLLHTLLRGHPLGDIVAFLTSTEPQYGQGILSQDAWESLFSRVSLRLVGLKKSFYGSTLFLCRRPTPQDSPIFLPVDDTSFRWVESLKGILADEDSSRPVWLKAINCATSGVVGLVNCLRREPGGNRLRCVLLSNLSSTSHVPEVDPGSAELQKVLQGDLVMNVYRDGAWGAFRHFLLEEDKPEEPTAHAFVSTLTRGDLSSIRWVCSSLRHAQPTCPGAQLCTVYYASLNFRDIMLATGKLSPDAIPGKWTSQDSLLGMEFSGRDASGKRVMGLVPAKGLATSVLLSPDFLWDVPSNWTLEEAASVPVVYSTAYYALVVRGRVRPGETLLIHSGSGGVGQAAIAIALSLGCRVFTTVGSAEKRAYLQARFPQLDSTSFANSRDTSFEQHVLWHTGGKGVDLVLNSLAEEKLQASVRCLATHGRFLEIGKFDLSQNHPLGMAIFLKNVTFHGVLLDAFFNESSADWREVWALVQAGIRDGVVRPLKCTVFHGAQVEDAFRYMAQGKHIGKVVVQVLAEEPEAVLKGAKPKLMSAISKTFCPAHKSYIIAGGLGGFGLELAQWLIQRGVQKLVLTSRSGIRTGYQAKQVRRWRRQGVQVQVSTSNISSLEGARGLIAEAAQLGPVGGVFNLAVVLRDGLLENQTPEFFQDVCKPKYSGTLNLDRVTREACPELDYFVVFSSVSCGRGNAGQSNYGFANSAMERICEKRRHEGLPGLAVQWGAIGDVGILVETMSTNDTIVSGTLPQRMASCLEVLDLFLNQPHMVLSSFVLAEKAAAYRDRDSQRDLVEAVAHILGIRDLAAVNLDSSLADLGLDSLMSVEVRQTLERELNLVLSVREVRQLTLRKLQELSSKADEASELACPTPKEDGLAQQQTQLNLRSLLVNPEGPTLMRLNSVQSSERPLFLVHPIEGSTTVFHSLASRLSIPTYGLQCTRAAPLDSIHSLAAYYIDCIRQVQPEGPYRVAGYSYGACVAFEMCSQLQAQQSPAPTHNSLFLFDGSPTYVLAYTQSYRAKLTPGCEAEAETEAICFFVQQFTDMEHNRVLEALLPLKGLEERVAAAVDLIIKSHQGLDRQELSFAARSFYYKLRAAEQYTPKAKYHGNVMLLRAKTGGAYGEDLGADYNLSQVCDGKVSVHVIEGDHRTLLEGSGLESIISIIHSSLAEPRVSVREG
test.method.notes: inhibition of human FAS-TE enzyme activity – biochemical, kinetic fluorescence intensity, dose response (AID 624326);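 also: rate of fluorescence rise from hydrolysis of a fluorogenic O-methyl fluorescein ester substrate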
Type: functional
Activity calls are given as the source filed them. Rule as the data show it: active = IC50 of 20 µM or less and inactive = more.
Items are presented alongside their recorded IC50.

-- ask Give measured IC50 for CN1C(C(=O)NCc2cccc(Br)c2)CC2Cn3c(nc4cc(Cl)c(Cl)cc43)C21 (stereo unspecified) (Fatty acid synthase (Homo sapiens, UniProt P49327)).
-- reply 10.3 µM (active)

Others:
-- ask Give measured IC50 for `COC(=O)N1C(=O)[C@](Cc2ccccc2)(c2ccccc2)N1C(=O)OC` (Fatty acid synthase (Homo sapiens, UniProt P49327)).
-- reply 4.85 µM (active)

-- ask Give measured IC50 for CC(=O)N(C1CC(C)C(C#N)(C#N)C1(C#N)C#N)N(C)C (stereo unspecified) (Fatty acid synthase (Homo sapiens, UniProt P49327)).
-- reply 6.1 µM (active)

-- ask Give measured IC50 for COC(=O)C(CCCCNC(=O)c1ccc([N+](=O)[O-])cc1)NC(=O)c1ccc([N+](=O)[O-])cc1 (stereo unspecified) (Fatty acid synthase (Homo sapiens, UniProt P49327)).
-- reply 55.8 µM (inactive)

-- ask Give measured IC50 for `O=C(COc1ccc(Cl)cc1)Nc1ccc(C(=O)O)cc1NC(=O)COc1ccc(Cl)cc1` (Fatty acid synthase (Homo sapiens, UniProt P49327)).
-- reply 7.29 µM (active)

-- ask Give measured IC50 for `Cc1nn(Cc2ccc([N+](=O)[O-])cc2)c(=O)n1N(C)c1ncc(C(F)(F)F)cc1Cl` (Fatty acid synthase (Homo sapiens, UniProt P49327)).
-- reply 2.51 µM (active)
